# GI50 per entry
# Test system: SNB-78
# test_description: NCI tumour cell line growth inhibition, 48 h
Active and inactive are the calls of the source. Rule as the data show it: active = GI50 up to about 1.1 µM and inactive = higher.
quantity_kind: GI50

>>> value_reported("COC(=O)c1ccc(C(=O)OC)c2nc3cc(C)ccc3nc12")
"> 100 µM (inactive)"
>>> value_reported("CN(C)C(c1ccccc1)C(O)c1ccccc1 (stereo unspecified)")
"> 100 µM (inactive)"
>>> value_reported("Nc1ccc(C(=O)N/C(=C\\c2cccc([N+](=O)[O-])c2)c2nc3cc(Cl)ccc3[nH]2)cc1")
"> 100 µM (inactive)"
>>> value_reported("O=C1CCC(=O)N1Sc1ccccc1")
"> 100 µM (inactive)"
>>> value_reported("CC(=O)NC(ON1C(=O)COc2ccccc21)C(Cl)(Cl)Cl (stereo unspecified)")
"> 100 µM (inactive)"
>>> value_reported("Cc1ccc(S(=O)(=O)c2ccc(NC(=O)SCCC(=O)O)cc2)cc1")
"> 100 µM (inactive)"
>>> value_reported("CC(C(=O)N1C(=O)N(C(=O)C(C)C(O)c2ccccc2)C2CCCCC21)C(O)c1ccccc1 (stereo unspecified)")
"> 100 µM (inactive)"
>>> value_reported("COc1ccccc1NC(=O)CC(=O)NNCC(=O)Nc1nnc(-c2ccccc2)o1")
"> 100 µM (inactive)"
>>> value_reported("Cc1cc(NCCCCCCCNc2cc(C)nc3cc(N)ccc23)c2ccc(N)cc2n1")
"40.3 µM (inactive)"
>>> value_reported("CC(=O)C(C(=O)C(=O)Nc1cc(Cl)c(Cl)cc1Cl)c1csc(N)n1 (stereo unspecified)")
"> 100 µM (inactive)"
>>> value_reported("Cn1ncc2c(c1=O)Nc1ccccc1S2(=O)=O")
"> 100 µM (inactive)"
>>> value_reported("CC(=O)/C=C1/c2ccccc2N(C(C)=O)C1O (stereo unspecified)")
"> 100 µM (inactive)"
>>> value_reported("COc1ccc(C2=C(Cl)c3cc(OC)c(OC)cc3C2OC)cc1OC (stereo unspecified)")
"> 100 µM (inactive)"
>>> value_reported("CC(Oc1ccc2c(=O)cc(-c3ccccc3)oc2c1)C(=O)O (stereo unspecified)")
"> 100 µM (inactive)"
>>> value_reported("N/N=C1\\C(=O)N(c2ccc(Cl)c(Cl)c2)C(=O)C1C(=O)Nc1ccc(Cl)c(Cl)c1 (stereo unspecified)")
"24.7 µM (inactive)"
>>> value_reported("CCCCCC(=O)OCCOCCOCCOCCOCCOCc1ccccc1")
"> 100 µM (inactive)"
>>> value_reported("CCN(CC)c1ccc(/N=C2/C=CC(=C(C#N)C#N)c3ccccc32)c(C)c1")
"1.63 µM (inactive)"
>>> value_reported("Cc1cc2c(c(C(=O)O)c1C)-c1cccc(Cl)c1C2=O")
"> 100 µM (inactive)"
>>> value_reported("CC(=O)OC1(C#N)CC2OC1C1C2N1C(=O)c1ccccc1 (stereo unspecified)")
"> 100 µM (inactive)"
>>> value_reported("COc1cc(C2c3cc4c(cc3[C@@H](Nc3cnc5ccccc5c3)C3COC(=O)[C@H]23)OCO4)cc(OC)c1O (stereo partly specified)")
"2.69 µM (inactive)"
>>> value_reported("O=C1/C(=C/c2ccc(Cl)cc2)CNC/C1=C\\c1ccc(Cl)cc1")
"2.65 µM (inactive)"
>>> value_reported("N#CC(C(=O)CCC(=O)Nc1cccc(Cl)c1)c1ccccc1 (stereo unspecified)")
"> 100 µM (inactive)"
>>> value_reported("COc1ccc(NC(=O)COC(=O)c2cccc3c(=O)c4ccccc4[nH]c23)cc1")
"22.1 µM (inactive)"
>>> value_reported("c1ccc2c(c1)n1nnnc1c1nnnn21")
"53.6 µM (inactive)"
>>> value_reported("O=c1nc2occc2cn1C1CC(O)C(CO)O1 (stereo unspecified)")
"> 100 µM (inactive)"
>>> value_reported("O=CN/C=C/c1cccc(O)c1")
"> 100 µM (inactive)"
